# Test system: Escherichia coli IAI1
# Protocol description: growth (OD595) fold change vs plate DMSO controls (fold change (ratio)); higher = more growth
# Experimental setup: incubation time: 27 h, anaerobic, 37 °C
Structures can show the parent of a compound that is named as a salt.
Recorded endpoint: growth
Numbers only.

Consider the reported growth for these compounds:
C[C@@H]1CCO[C@H]2Cn3cc(C(=O)NCc4ccc(F)cc4F)c(=O)c(O)c3C(=O)N12 [Dolutegravir] (20 µM): 1.02
CN1C2CCCC1CC(NC(=O)c1nn(C)c3ccccc13)C2 (centres undefined) [Granisetron] (20 µM): 1.02
OC[C@@H](O)[C@@H](O[C@H]1O[C@H](CO)[C@@H](O)[C@H](O)[C@H]1O)[C@H](O)[C@@H](O)CO [Maltitol] (50 µM): 0.988

Now consider the entry below.
Task: Fill in the blank: the reported growth of CC(COc1ccccc1)NN (centres undefined) [Phenoxypropazine dihydrochloride] (20 µM) is ____.
Output: 0.99

====

# Test system: Klebsiella aerogenes DSM 30053
# Protocol description: fold change of Putrescine concentration vs plate DMSO controls (fold change (ratio)); higher = more amine produced, active = hit call of the paper (significant change in both replicates, either direction)
# Experimental setup: incubation time: 27 h, anaerobic, 37 °C
Where a name gives a salt, the structure may show the parent alone.
Recorded endpoint: fold change of Putrescine concentration
One number for each entry.

Consider the reported fold change of Putrescine concentration for these compounds:
CC(Oc1ccccc1)C(=O)N[C@@H]1C(=O)N2[C@@H]1SC(C)(C)[C@@H]2C(=O)O (stereo partly drawn) [Phenethicillin potassium salt] (20 µM): 0.954
CC(C)(Oc1ccc(C2CC2(Cl)Cl)cc1)C(=O)O (stereo not drawn) [Ciprofibrate] (20 µM): 1

Task: Fill in the blank: the reported fold change of Putrescine concentration of C[C@]12C[C@H](O)[C@H]3[C@@H](CCC4=CC(=O)CC[C@@]43C)[C@@H]1CC[C@@H]2C(=O)CO [Corticosterone] (20 µM) is ____.
Output: 0.99

====

# System: Clostridium sporogenes DSM 1664
# Protocol description: fold change of Tryptamine concentration vs plate DMSO controls (fold change (ratio)); higher = more amine produced, active = hit call of the paper (significant change in both replicates, either direction)
# Experimental setup: incubation time: 27 h, anaerobic, 37 °C
Where a name gives a salt, the structure may show the parent alone.
Please go through the items and note down their fold change of Tryptamine concentration.
One number for each entry.

Consider the reported fold change of Tryptamine concentration for these compounds:
COc1ccc(C(=O)c2ccccc2)c(O)c1 [Oxybenzone] (20 µM): 0.954
CC[C@H](C)[C@H](N)C1=N[C@H](C(=O)N[C@@H](CC(C)C)C(=O)N[C@H](CCC(=O)O)C(=O)N[C@H](C(=O)N[C@H]2CCCCNC(=O)[C@H](CC(N)=O)NC(=O)[C@@H](CC(=O)O)NC(=O)[C@H](Cc3cnc[nH]3)NC(=O)[C@@H](Cc3ccccc3)NC(=O)[C@H]([C@@H](C)CC)NC(=O)[C@@H](CCCN)NC2=O)[C@@H](C)CC)CS1 [Bacitracin] (20 µM): 1.02
CCN(CC)CCCC(C)Nc1c2ccc(Cl)cc2nc2ccc(OC)cc12 (stereo not given) [Quinacrine dihydrochloride hydrate] (20 µM): 1.1
COc1cc(OC)c(C(=O)CCCN2CCCC2)c(OC)c1 [Buflomedil hydrochloride] (20 µM): 1.08

Now consider the entry below.
Task: Fill in the blank: the reported fold change of Tryptamine concentration of Cc1cc2nc3c(=O)[nH]c(=O)nc-3n(C[C@H](O)[C@H](O)[C@H](O)CO)c2cc1C [Riboflavine] (20 µM) is ____.
Output: 1

====

# Tested on: Ruminococcus gnavus DSM 108212
# Protocol description: growth (OD595) fold change vs plate DMSO controls (fold change (ratio)); higher = more growth
# Experimental setup: incubation time: 27 h, anaerobic, 37 °C
Structures can show the parent of a compound that is named as a salt.
Classification field: 1 = growth at or over 0.9; 0 = growth under 0.9.

Cc1ccnc(NS(=O)(=O)c2ccc(N)cc2)n1 [Sulfamerazine] (20 µM): 1
CC(=O)NCCCS(=O)(=O)O [Acamprosate calcium] (20 µM): 0
Clc1ccc(CCC(Cn2ccnc2)Sc2c(Cl)cccc2Cl)cc1 (configuration not stated) [Butoconazole nitrate] (20 µM): 0
C[N+](C)(C)CCOC(N)=O [Carbachol chloride] (20 µM): 1

Shift focus to the following entry.
Task: growth >= 0.9 for C=CC(N)CCC(=O)O (configuration not stated) [Vigabatrin hydrochloride] (20 µM) ?
Output: 1

====

# Test system: Clostridium sporogenes DSM 1664
# Protocol description: fold change of Tryptamine concentration vs plate DMSO controls (fold change (ratio)); higher = more amine produced, active = hit call of the paper (significant change in both replicates, either direction)
# Experimental setup: incubation time: 27 h, anaerobic, 37 °C
Structures can show the parent of a compound that is named as a salt.
Recorded endpoint: fold change of Tryptamine concentration
Give bare numbers.

O=C(NC1CCN(CCCCC2(C(=O)NCC(F)(F)F)c3ccccc3-c3ccccc32)CC1)c1ccccc1-c1ccc(C(F)(F)F)cc1 [Lomitapide] (20 µM): 1.01
CCCOc1cc(N)ccc1C(=O)OCCN(CC)CC [Propoxycaine hydrochloride] (20 µM): 1.02

Hi! Can you tell me fold change of Tryptamine concentration for each of these molecules?
1. O=C(O)c1cc(-c2ccc(F)cc2F)ccc1O [Diflunisal] (20 µM)
2. CC(CCc1ccccc1)NCC(O)c1ccc(O)c(C(N)=O)c1 (stereo unspecified) [Labetalol hydrochloride] (20 µM)
3. COc1ccc2c(c1)c(CC(=O)O)c(C)n2C(=O)c1ccc(Cl)cc1 [Indomethacin] (20 µM)
4. CN(C/C=C/c1ccccc1)Cc1cccc2ccccc12 [Naftifine hydrochloride] (20 µM)
5. COc1c(O[C@@H]2O[C@H](CO)[C@@H](O)[C@H](O)[C@H]2O)cc2c(c1OC)-c1ccc(SC)c(=O)cc1[C@@H](NC(C)=O)CC2 [Thiocolchicoside] (20 µM)

Output:
1. 1.01
2. 1
3. 0.988
4. 0.99
5. 1.01

Hi! Can you tell me fold change of Tryptamine concentration for each of these molecules?
1. Oc1ccc(OCc2ccccc2)cc1 [Monobenzone] (20 µM)
2. O=C(NCc1ncc(C(F)(F)F)cc1Cl)c1c(Cl)cccc1Cl (20 µM)

Output:
[1.02, 0.989]

Hi! Can you tell me fold change of Tryptamine concentration for each of these molecules?
1. NC(=O)N1c2ccccc2CC(=O)c2ccccc21 [Oxcarbazepine] (20 µM)
2. CN(C)C(=O)C(CCN1CCC(O)(c2ccc(Cl)cc2)CC1)(c1ccccc1)c1ccccc1 [Loperamide hydrochloride] (20 µM)

Output:
1. 0.996
2. 0.976

====

Please go through the items and note down their fold change of Putrescine concentration.
# System: Escherichia coli IAI1
# Protocol description: fold change of Putrescine concentration vs plate DMSO controls (fold change (ratio)); higher = more amine produced, active = hit call of the paper (significant change in both replicates, either direction)
# Experimental setup: incubation time: 27 h, anaerobic, 37 °C
Numbers only.

Consider the reported fold change of Putrescine concentration for these compounds:
NCC[C@H](O)C(=O)N[C@@H]1C[C@H](N)[C@@H](O[C@H]2O[C@H](CN)[C@@H](O)[C@H](O)[C@H]2O)[C@H](O)[C@H]1O[C@H]1O[C@H](CO)[C@@H](O)[C@H](N)[C@H]1O [Amikacin hydrate] (20 µM): 1
CC(C)(C)CC(C)(C)c1ccc(O)c(Cc2ccc(Cl)cc2Cl)c1 [Clofoctol] (20 µM): 0.999
CN1c2cc(O)c(N=NC(N)=O)cc2CC1S(=O)(=O)O (stereo unspecified) [Carbazochrome sodium sulfonate] (20 µM): 1.01
CC(=O)S[C@@H]1CC2=CC(=O)CC[C@]2(C)[C@H]2CC[C@@]3(C)[C@@H](CC[C@@]34CCC(=O)O4)[C@H]12 [Spironolactone] (20 µM): 1.02
OCCN1C[C@H](O)[C@@H](O)[C@H](O)[C@H]1CO [Miglitol] (20 µM): 1

Now consider the entry below.
Task: Fill in the blank: the reported fold change of Putrescine concentration of CC[C@H](C)C(=O)O[C@H]1C[C@@H](C)C=C2C=C[C@H](C)[C@H](CC[C@@H]3C[C@@H](O)CC(=O)O3)[C@H]21 [Lovastatin] (20 µM) is ____.
Output: 0.975

====

# Test system: Escherichia coli IAI1
# Protocol description: fold change of Putrescine concentration vs plate DMSO controls (fold change (ratio)); higher = more amine produced, active = hit call of the paper (significant change in both replicates, either direction)
# Experimental setup: incubation time: 27 h, anaerobic, 37 °C
Structures can show the parent of a compound that is named as a salt.
Recorded endpoint: fold change of Putrescine concentration
Numbers only.

Consider the reported fold change of Putrescine concentration for these molecules:
C[C@H](CCc1ccccc1)NC[C@H](O)c1ccc(O)c(C(N)=O)c1 [Dilevalol] (20 µM): 1.02
CC(C(=O)O)c1ccc(N2Cc3ccccc3C2=O)cc1 (stereo not drawn) [Indoprofen] (20 µM): 0.977
CCN(CC)CCNc1ccc(CO)c2sc3ccccc3c(=O)c12 [Hycanthone] (20 µM): 1.01

Hi! Can you tell me fold change of Putrescine concentration for each of these molecules?
1. CCCCC(CC)CN1C(=O)[C@@H]2[C@H](C1=O)[C@@H]1C=C[C@H]2C1 (mixture of isomers) (20 µM)
2. c1ccc2cc3c(ccc4ccccc43)cc2c1 [Benz[a]anthracene] (20 µM)
3. N=C(N)NCC1COC2(CCCCC2)O1 (stereo not drawn) [Guanadrel sulfate] (20 µM)
4. CN(CCCN1c2ccccc2CCc2ccccc21)CC(=O)c1ccc(Cl)cc1 [Lofepramine] (20 µM)

Output:
0.993
1.02
0.993
1.01

Task: What measured fold change of Putrescine concentration is associated with Cc1ccccc1N1C(=O)c2cc(S(N)(=O)=O)c(Cl)cc2NC1C (stereo not drawn) [Metolazone] (20 µM) on Escherichia coli IAI1?
Output: 1.02
